- measured on: T1, TPR1 domain of human Hop protein (codons 1-118) (human, UniProt P31948 4-118)
- T1 construct: Expressed in E. coli with a removable N-terminal His6 tag, which was cleaved with TEV; It could not be checked that the entry is exactly residues 1-118; also called N-terminal TPR domain of Hop
- experiment notes: ITC, 25 °C
pKd: −log10 of the molar value. Ends that are not written are not given here.
Measured pKd accompanies every entry in the list below.

binder | pKd
Ac-PTIEEVD [C-terminal heptamer peptide of Hsc70] | 4.70 to 4.82

[in] In one line, give reported pKd of the entry Ac-EEVD (also called EEVD peptide; EEVD motif) [tetrapeptide EEVD] .
[out] ~3.52
